Test system: A/Hessen/1/2003 (H3N2)
Assay type: cell-based, influenza virus
# Viability of infected cells relative to aprotinin, Replicate 2 listing for each entry below
assay.endpoint: Viability of infected cells relative to aprotinin, Replicate 2

{"macromolecule.sequence": "SLLGLLDVVKNTVGQT [LS-AMP-A10]", "endpoint.result": 0.1761}
{"macromolecule.sequence": "DVVKSKVGQT [LS-AMP-A20]", "endpoint.result": 0.1556}
{"macromolecule.sequence": "SLFGLLDLVKNKVGQTGLL [LS-AMP-A2]", "endpoint.result": 0.0432}

###

Test system: Escherichia coli BL21(DE3)
method.description: Antibacterial growth assay (OD600)
test.parameters: OD600, medium = 100, MH II broth, 37 °C, peptide 200 µM mixed 50 µL + 50 µL with bacteria; Figure 7: 48 h; replicate column 3
assay.endpoint: Bacterial growth relative to medium, E. coli, replicate 3

{"macromolecule.sequence": "SLFGLLDLVKSKVGQTGLL [LS-AMP-A1]", "endpoint.result": 114.343}
{"macromolecule.sequence": "SLLGLLDVVKSKIGQTG [LS-AMP-A14]", "endpoint.result": 96.3776}
{"macromolecule.sequence": "SLLGLLDVVKNKVGQIGLL [LS-AMP-A3]", "endpoint.result": 89.3889}
{"macromolecule.sequence": "SLLGLLDVVKSKIGQT [LS-AMP-A15]", "endpoint.result": 48.0425}
{"macromolecule.sequence": "SLLGLLDVVKNTVGQTG [LS-AMP-A9]", "endpoint.result": 35.5653}
{"macromolecule.sequence": "SLLGLLDVVKNTVGQ [LS-AMP-A11]", "endpoint.result": 36.8825}
{"macromolecule.sequence": "SLLGLLDVVKNTVGQTGLL [LS-AMP-A8]", "endpoint.result": 53.4577}
{"macromolecule.sequence": "SLLGLLDVVKSKVGQTGLL [LS-AMP-A18]", "endpoint.result": 68.0936}
{"macromolecule.sequence": "LLDVVKSKIGQTGLL [LS-AMP-A16]", "endpoint.result": 34.0285}
{"macromolecule.sequence": "DVVKSKVGQT [LS-AMP-A20]", "endpoint.result": 50.6769}
{"macromolecule.sequence": "SLLGLLDVVKNTVGQT [LS-AMP-A10]", "endpoint.result": 57.0069}
{"macromolecule.sequence": "SLLGLLDVVKNKVGQIG [LS-AMP-A4]", "endpoint.result": 38.7121}
{"macromolecule.sequence": "GSLLGLLDVVKSKVGQTGLL [LS-AMP-A19]", "endpoint.result": 94.9872}
{"macromolecule.sequence": "SLLGLLDVVKNKVGQI [LS-AMP-A5]", "endpoint.result": 26.4544}
{"macromolecule.sequence": "SLFGLLDLVKNKVGQTGLL [LS-AMP-A2]", "endpoint.result": 124.918}
{"macromolecule.sequence": "SLLGLLDVVKSKIGQTGLL [LS-AMP-A13]", "endpoint.result": 112.001}
